Each recorded value in this set is attributed to patent US20040146507A1.

List of Var.EC50/HuIgG1 EC50 values.
# study target: T1, rhesus CD11a (rhesus, UniProt H9Z8N3 26-1169)
# T1 construct: whole, on cells; On rhesus peripheral blood lymphocytes or leukocytes; also called rhCD11a
# T1 sequence: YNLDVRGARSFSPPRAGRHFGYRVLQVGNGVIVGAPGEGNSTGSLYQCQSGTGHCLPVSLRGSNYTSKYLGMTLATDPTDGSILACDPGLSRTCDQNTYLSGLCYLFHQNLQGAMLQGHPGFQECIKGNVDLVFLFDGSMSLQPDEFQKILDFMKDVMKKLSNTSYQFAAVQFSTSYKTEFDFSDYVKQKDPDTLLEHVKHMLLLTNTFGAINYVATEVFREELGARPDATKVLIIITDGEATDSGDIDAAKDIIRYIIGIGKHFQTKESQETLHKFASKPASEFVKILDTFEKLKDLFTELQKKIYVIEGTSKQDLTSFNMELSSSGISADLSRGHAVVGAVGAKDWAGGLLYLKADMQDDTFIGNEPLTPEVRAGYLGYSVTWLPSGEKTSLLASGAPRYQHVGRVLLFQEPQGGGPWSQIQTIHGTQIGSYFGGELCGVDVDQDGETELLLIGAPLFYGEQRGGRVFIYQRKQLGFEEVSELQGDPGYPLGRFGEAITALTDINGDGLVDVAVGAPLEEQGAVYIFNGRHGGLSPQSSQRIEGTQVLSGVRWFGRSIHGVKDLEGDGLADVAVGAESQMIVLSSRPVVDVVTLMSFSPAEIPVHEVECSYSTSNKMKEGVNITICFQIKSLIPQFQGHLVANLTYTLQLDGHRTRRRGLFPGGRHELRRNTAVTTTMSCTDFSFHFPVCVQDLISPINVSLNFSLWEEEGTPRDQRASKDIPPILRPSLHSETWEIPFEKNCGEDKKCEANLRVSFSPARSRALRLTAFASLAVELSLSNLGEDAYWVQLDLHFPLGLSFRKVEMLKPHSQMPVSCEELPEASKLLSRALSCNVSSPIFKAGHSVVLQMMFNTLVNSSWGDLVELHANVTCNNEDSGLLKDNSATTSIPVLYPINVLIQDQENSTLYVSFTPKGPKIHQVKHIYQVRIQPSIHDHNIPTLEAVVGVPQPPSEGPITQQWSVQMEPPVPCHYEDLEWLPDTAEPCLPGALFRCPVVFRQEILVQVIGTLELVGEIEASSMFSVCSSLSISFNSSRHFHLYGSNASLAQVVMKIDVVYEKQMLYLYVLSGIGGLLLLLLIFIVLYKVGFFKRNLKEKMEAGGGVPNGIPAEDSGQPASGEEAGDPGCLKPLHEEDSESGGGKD
# procedure text: rhesus PBL binding
// return numeric value only (unit: ratio, not printed)

[
  {
    "binder": "HuIgG1 mutant H2C11 (antibody, V domains shown) VH: EVQLVESGGGLVQPGGSLRLSCAASGYSFTGHWMNWVRQAPGKGLEWVGMIAPASSNTRYNQKFKDRFTISVDKSKNTLYLQMNSLRAEDTAVYYCARGIYFYGTTYFDYWGQGTLVTVSS VL: DIQMTQSPSSLSASVGDRVTITCRASKTISKYLAWYQQKPGKAPKLLIYSGSTLQSGVPSRFSGSGSGTDFTLTISSLQPEDFATYYCQQHNEYPLTFGQGTKVEIKR",
    "Var.EC50/HuIgG1 EC50 (ratio)": 0.002
  },
  {
    "binder": "humanized MHM24 IgG1 (antibody, V domains shown, F(ab)-8 VL and VH domains fused to human constant light and heavy (IgG1) chains; also called HuIgG1; huMHM24) VH: EVQLVESGGGLVQPGGSLRLSCAASGYSFTGHWMNWVRQAPGKGLEWVGMIHPSDSETRYNQKFKDRFTISVDKSKNTLYLQMNSLRAEDTAVYYCARGIYFYGTTYFDYWGQGTLVTVSS VL: DIQMTQSPSSLSASVGDRVTITCRASKTISKYLAWYQQKPGKAPKLLIYSGSTLQSGVPSRFSGSGSGTDFTLTISSLQPEDFATYYCQQHNEYPLTFGQGTKVEIKR",
    "Var.EC50/HuIgG1 EC50 (ratio)": 1
  },
  {
    "binder": "HuIgG1 mutant H2A1 (antibody, V domains shown, HuIgG1 mutant, human IgG1; Kabat numbering) VH: EVQLVESGGGLVQPGGSLRLSCAASGYSFTGHWMNWVRQAPGKGLEWVGMIAPADSETRYNQKFKDRFTISVDKSKNTLYLQMNSLRAEDTAVYYCARGIYFYGTTYFDYWGQGTLVTVSS VL: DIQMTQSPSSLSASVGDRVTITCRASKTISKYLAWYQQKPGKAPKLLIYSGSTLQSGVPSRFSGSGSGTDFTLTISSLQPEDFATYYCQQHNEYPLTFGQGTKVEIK",
    "Var.EC50/HuIgG1 EC50 (ratio)": 0.013
  }
]

Query :: In one line, give reported Var.EC50/HuIgG1 EC50 of the entry rhesus-binding MHM24 IgG1 (antibody, V domains shown, HuIgG1 mutant (H52 Ala, H53 Ala, H54 Ser, H56 Ser); human IgG1; also called RhIgG1; H2C12) VH: EVQLVESGGGLVQPGGSLRLSCAASGYSFTGHWMNWVRQAPGKGLEWVGMIAPASSSTRYNQKFKDRFTISVDKSKNTLYLQMNSLRAEDTAVYYCARGIYFYGTTYFDYWGQGTLVTVSS VL: DIQMTQSPSSLSASVGDRVTITCRASKTISKYLAWYQQKPGKAPKLLIYSGSTLQSGVPSRFSGSGSGTDFTLTISSLQPEDFATYYCQQHNEYPLTFGQGTKVEIKR .
Result :: 0.004
